- method: Antagonist activity at P2Y12 receptor in rat platelet-rich plasma assessed as inhibition of ADP-induced platelet aggregation incubated for 5 mins prior to ADP-challenge by light transmission-based assay
pIC50: −log10 of the molar value.

molecule	pIC50
CCCSc1nc(N[C@@H]2C[C@H]2c2cccnc2)c2nnn([C@@H]3C[C@H](OCCO)[C@@H](O)[C@H]3O)c2n1	5.82
CCCSc1nc(N[C@@H]2C[C@H]2c2ccc(F)c(F)c2)c2nnn([C@H]3[C@H](O)[C@H](O)[C@@H](O)[C@@H]3O)c2n1	6.19
CCCSc1nc(N[C@@H]2C[C@H]2c2ccc(F)c(F)c2)c2nnn([C@@H]3C[C@H](OCC(F)CO)[C@@H](O)[C@H]3O)c2n1 (some centres not stated)	6.39
CCCSc1nc(N[C@@H]2C[C@H]2c2ccc(F)c(F)c2)c2nnn([C@@H]3C=C[C@@H](O)[C@H]3O)c2n1	6.07
CCCSc1nc(N[C@@H]2C[C@H]2c2ccc(F)c(F)c2)c2nnn([C@H]3[C@H](O)[C@H](O)[C@@H](O)[C@H]3F)c2n1	6.54
CCCSc1nc(N[C@@H]2C[C@H]2c2ccc(F)c(F)c2)c2nnn([C@@H]3C[C@H](F)[C@@H](O)[C@H]3O)c2n1	6.96
CCCSc1nc(N[C@@H]2C[C@H]2c2ccc(Cl)s2)c2nnn([C@@H]3C[C@H](OCCO)[C@@H](O)[C@H]3O)c2n1	6.80
